Target: D(4) dopamine receptor (Homo sapiens)
Sequence (P21917 whole entry): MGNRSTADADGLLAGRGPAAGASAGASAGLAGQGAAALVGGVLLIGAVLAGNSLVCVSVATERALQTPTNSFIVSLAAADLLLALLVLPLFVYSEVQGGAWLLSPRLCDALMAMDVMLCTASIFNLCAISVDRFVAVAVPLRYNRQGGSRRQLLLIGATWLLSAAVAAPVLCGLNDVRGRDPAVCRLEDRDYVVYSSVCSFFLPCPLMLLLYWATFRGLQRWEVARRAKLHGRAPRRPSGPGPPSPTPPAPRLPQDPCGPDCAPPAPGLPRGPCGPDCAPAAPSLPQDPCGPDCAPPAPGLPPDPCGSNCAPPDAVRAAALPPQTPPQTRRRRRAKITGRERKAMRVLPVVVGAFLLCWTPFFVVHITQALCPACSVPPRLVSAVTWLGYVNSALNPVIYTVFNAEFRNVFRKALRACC
Assay: Binding Affinity was tested on the high affinity site of Dopamine receptor D4.4
Give measured log10 of Ki for each item. Keep answers brief.
On a log10 scale: recorded Ki, unit µM.

Here is how some compounds turned out for log10 of Ki.
compound | target-entity | log10 of Ki
CCCN(CCC)C1CC=C(C#Cc2ccccc2)CC1 (centres undefined) | D(4) dopamine receptor (Homo sapiens) | 1.20
C#CC(C#C)=C1CCC(N(CCC)CCC)CC1 (centres undefined) | D(4) dopamine receptor (Homo sapiens) | 0.59
C#CC1=CCC(N(CCC)CCC)CC1 (centres undefined) | D(4) dopamine receptor (Homo sapiens) | -1.66
CCCN(CCC)C1CCC(=C(C#Cc2ccccc2)C#Cc2ccccc2)CC1 (centres undefined) | D(4) dopamine receptor (Homo sapiens) | 0.15
CCCN(CCC)C1CCC(=C(C#C[Si](C)(C)C)C#C[Si](C)(C)C)CC1 (centres undefined) | D(4) dopamine receptor (Homo sapiens) | 0.28

Lab note: next compound to report on.
Any idea what log10 of Ki was measured for CCCN(CCC)C1CC=C(C#C[Si](C)(C)C)CC1 (centres undefined) ? -0.80

----------
Target: D(2) dopamine receptor (Homo sapiens, UniProt P14416)
Sequence (P14416 whole entry): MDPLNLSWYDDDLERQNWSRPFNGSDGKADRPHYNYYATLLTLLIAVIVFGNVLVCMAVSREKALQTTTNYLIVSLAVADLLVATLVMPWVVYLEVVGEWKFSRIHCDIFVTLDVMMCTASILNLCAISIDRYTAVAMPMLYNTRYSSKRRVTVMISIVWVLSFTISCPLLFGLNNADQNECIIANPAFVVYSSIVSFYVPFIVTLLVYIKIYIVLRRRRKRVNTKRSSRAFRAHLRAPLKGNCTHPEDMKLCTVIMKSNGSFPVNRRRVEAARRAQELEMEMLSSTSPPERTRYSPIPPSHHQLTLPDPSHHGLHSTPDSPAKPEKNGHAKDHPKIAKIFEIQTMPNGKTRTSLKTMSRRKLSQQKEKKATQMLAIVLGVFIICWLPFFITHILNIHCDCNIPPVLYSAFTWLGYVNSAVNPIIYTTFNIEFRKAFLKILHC
Assay: Binding Affinity was tested on High Affinity Site of Dopamine receptor D2S
assay-metric: Ki (µM)
Answers are plain numbers, in µM.

API: value(readout= Ki, system= D(2) dopamine receptor (Homo sapiens, UniProt P14416), query= CCCN(CCC)C1CC=C(C#Cc2ccccc2)CC1 (stereo unspecified) ) 15

----------
Give measured Ki for each item. Keep answers brief.
Biological target: D(3) dopamine receptor (Homo sapiens, UniProt P35462)
Sequence (P35462 whole entry): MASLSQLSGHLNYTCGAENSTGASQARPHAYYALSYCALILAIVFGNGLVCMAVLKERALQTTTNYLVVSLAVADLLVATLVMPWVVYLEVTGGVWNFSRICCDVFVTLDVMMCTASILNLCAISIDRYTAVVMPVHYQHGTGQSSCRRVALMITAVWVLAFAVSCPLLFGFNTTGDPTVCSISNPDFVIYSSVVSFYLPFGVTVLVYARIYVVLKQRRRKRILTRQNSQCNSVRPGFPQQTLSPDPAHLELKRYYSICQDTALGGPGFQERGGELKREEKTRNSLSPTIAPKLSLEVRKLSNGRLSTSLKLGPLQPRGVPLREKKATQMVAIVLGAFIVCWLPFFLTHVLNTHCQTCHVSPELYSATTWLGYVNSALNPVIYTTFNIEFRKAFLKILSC
Assay: Binding Affinity was tested on low Affinity Site of Dopamine receptor D3
Remember to quote the unit after the number.

molecule | Ki
CCCN(CCC)C1CC=C(C#C[Si](C)(C)C)CC1 (configuration not stated) | 1600 nM

Lab note: next molecule to report on.
API: value(readout= Ki, system= D(3) dopamine receptor (Homo sapiens, UniProt P35462), query= C#CC1=CCC(N(CCC)CCC)CC1 (configuration not stated) ) 590 nM

----------
Biological target: D(2) dopamine receptor (Homo sapiens)
Test: Binding Affinity was determined in the presence of 100 micro M Gpp(NH)p for decoupling of the ternary complex of Compound to Dopamine receptor D2S
assay-metric: Ki (µM)
Give bare numbers, in µM.

Any idea what Ki was measured for C#CC1=CCC(N(CCC)CCC)CC1 (configuration not stated) ? 17

----------
Biological target: D(2) dopamine receptor (Homo sapiens)
pKi: −log10 of the molar value.
assay-metric: pKi

API: value(readout= pKi, system= D(2) dopamine receptor (Homo sapiens), query= CCCN(CCC)C1CCC(=CC#N)CC1 (stereo unspecified) ) < 4.70

----------
Give measured pKi for each item. Keep answers brief.
Biological target: D(2) dopamine receptor (Homo sapiens, UniProt P14416)
Answers are plain numbers, as −log10 of the molar value.

compound | assay-metric | assay-result
CCCN(CCC)C1CCC(=C(C#C[Si](C)(C)C)C#C[Si](C)(C)C)CC1 (configuration not stated) | pKi | 4.89
CCCN(CCC)C1CC=C(C#C[Si](C)(C)C)CC1 (configuration not stated) | pKi | 6.01
CCCN(CCC)C1CCC(=C(C#N)C#N)CC1 (configuration not stated) | pKi | 4.82
C#CC1=CCC(N(CCC)CCC)CC1 (configuration not stated) | pKi | 6.60

Any idea what pKi was measured for CCCN(CCC)C1CCC(=C(C#Cc2ccccc2)C#Cc2ccccc2)CC1 (configuration not stated) ? 5.14
